Reference source: paper PMC7696255

target: S. aureus sortase A (Staphylococcus aureus, UniProt Q2FV99)
Construct: purchased AnaSpec AS-72229
Sequence (Q2FV99 whole entry): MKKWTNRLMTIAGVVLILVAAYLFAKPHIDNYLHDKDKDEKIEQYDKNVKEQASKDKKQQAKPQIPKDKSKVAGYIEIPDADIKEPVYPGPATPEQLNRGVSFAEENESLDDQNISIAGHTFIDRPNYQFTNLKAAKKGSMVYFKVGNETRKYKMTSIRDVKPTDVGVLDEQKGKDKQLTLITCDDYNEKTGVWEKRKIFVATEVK
test-protocol: SrtA enzyme inhibition FRET assay, DABCYL-LPETG-EDANS substrate
Format: biochemical
condition-context: SrtA enzymatic activity IC50, text summary, Figure 2A,B; both substrates
Method: The enzymatic reactions were carried out in black, low-binding polystyrene 384 well plates (Greiner Bio-One). […] SrtA was pre-incubated in the reaction buffer with compounds for 1 h at room temperature prior to the addition of the FRET substrate. […] Raw fluorescence data were corrected for autofluorescence before computing percentage inhibition values. […]
pIC50: −log10 of the molar value.
metric-name: pIC50

INSERT INTO measurements (structure, target, metric_name, reading) VALUES
  ('Cc1cc(O)c2c(c1)C(=O)c1c(c(O)cc(O)c1-c1c(O)cc(O)c3c1C(=O)c1cc(C)cc(O)c1C3=O)C2=O', 'S. aureus sortase A (Staphylococcus aureus, UniProt Q2FV99)', 'pIC50', '> 4.30'),
  ('CC(C)CCCc1c(O)ccc(C(=O)c2cc(Cl)c(Cl)[nH]2)c1O', 'S. aureus sortase A (Staphylococcus aureus, UniProt Q2FV99)', 'pIC50', '> 4.30');
